# Tested on: Neutrophil
# Measurement notes: Immunomodulatory activity in polymorphoneutrophils assessed as inhibition of PMA-activated oxidative burst by chemiluminescence assay
# Assay type: functional, cell-based
Active and inactive are the calls of the source. The calls are words filed in the database; no cut-off is given here.
Test readout: Activity

[
  {
    "Compound structure": "COc1c2ccoc2nc2c(O)c3c(c(CC=C(C)C)c12)OCO3",
    "Assay result": "inactive"
  },
  {
    "Compound structure": "COc1c2cc3c(cc2nc2occc12)O[C@@H](C(C)(C)O)CO3",
    "Assay result": "inactive"
  },
  {
    "Compound structure": "COc1ccc2c(OC)c3ccoc3nc2c1OC",
    "Assay result": "inactive"
  }
]

* * *

# Test system: Neutrophil
# Measurement notes: Immunomodulatory activity in polymorphoneutrophils assessed as inhibition of zymosan-activated oxidative burst by chemiluminescence assay
# Format: functional, cell-based
Test readout: Activity

[
  {
    "Compound structure": "COc1ccc2c(OC)c3ccoc3nc2c1OC",
    "Target system": "Neutrophil",
    "Assay result": "Dose-dependent effect"
  },
  {
    "Compound structure": "COc1cc2nc3occc3c(OC)c2cc1OC",
    "Target system": "Neutrophil",
    "Assay result": "Dose-dependent effect"
  },
  {
    "Compound structure": "COc1c2ccoc2nc2c(O)c3c(c(CC=C(C)C)c12)OCO3",
    "Target system": "Neutrophil",
    "Assay result": "Dose-dependent effect"
  },
  {
    "Compound structure": "COc1ccc2c(=O)n3c(nc2c1)-c1[nH]c2ccccc2c1CC3",
    "Target system": "Neutrophil",
    "Assay result": "Dose-dependent effect"
  },
  {
    "Compound structure": "COc1ccc2c(=O)n3c(nc2c1)-c1[nH]c2cc4c(cc2c1CC3)OCO4",
    "Target system": "Neutrophil",
    "Assay result": "Dose-dependent effect"
  },
  {
    "Compound structure": "COc1c2cc3c(cc2nc2occc12)O[C@@H](C(C)(C)O)CO3",
    "Target system": "Neutrophil",
    "Assay result": "Dose-dependent effect"
  },
  {
    "Compound structure": "CC1(C)O[C@H]2CC(=O)OC[C@]23[C@H]2CC[C@@]4(C)[C@H](c5ccoc5)OC(=O)[C@H]5O[C@]54[C@]2(C)C(=O)C[C@@H]13",
    "Target system": "Neutrophil",
    "Assay result": "Dose-dependent effect"
  }
]

* * *

Recorded IC50 by entry
# Test system: Neutrophil
# Measurement notes: Immunomodulatory activity in polymorphoneutrophils assessed as inhibition of luminol-induced oxidative burst by chemiluminescence assay
# Assay type: functional, cell-based
Test readout: IC50 (µM)

[
  {
    "Compound structure": "COc1ccc2c(=O)n3c(nc2c1)-c1[nH]c2ccccc2c1CC3",
    "Test readout": "IC50",
    "Unit": "µM",
    "Assay result": 27.4
  },
  {
    "Compound structure": "COc1c2cc3c(cc2nc2occc12)O[C@@H](C(C)(C)O)CO3",
    "Test readout": "IC50",
    "Unit": "µM",
    "Assay result": 14.5
  },
  {
    "Compound structure": "COc1c2ccoc2nc2c(O)c3c(c(CC=C(C)C)c12)OCO3",
    "Test readout": "IC50",
    "Unit": "µM",
    "Assay result": 21.2
  }
]
